tested on: LN-caP
Please assign -1 whenever GI50 is at or above 2000 nM, and 1 whenever it is below.

1) COc1c(C)cc2c(c1O)C1C3Cc4cc(C)c(OC)c(O)c4C(CNC(=O)C(C)N)N3C(O)C(C2)N1C (stereo not shown) [Safracin P-22B] : 1
2) COc1c(C)cc2c(c1O)C1NC(C2)C(O)N2C(CNC(=O)C(C)N)c3c(cc(C)c(OC)c3O)CC12 (stereo not shown) [Safracin P-19B] : -1
3) COc1c(C)cc2c(c1O)C1C3Cc4cc(C)c(OC)c(O)c4C(CNC(=O)C(C)N)N3CC(C2)N1C (stereo not shown) [Safracin P-22A] : -1
4) CCOC1=C(C)C(=O)C2=C(C1=O)C(CNC(=O)C(C)N)N1C(O)C3Cc4cc(C)c(OCC)c(O)c4C(C1C2)N3C (stereo not shown) : 1
5) COC1=C(C)C(=O)C2=C(C1=O)C(CNC(=O)C(C)N)N1CC3Cc4cc(C)c(OC)c(O)c4C(N3)C1C2 (stereo not shown) : -1
6) CCOC1=C(C)C(=O)C2=C(C1=O)C(CNC(=O)C(C)N)N1CC3Cc4cc(C)c(OCC)c(O)c4C(C1C2)N3C (stereo not shown) : 1
7) COC1=C(C)C(=O)C2=C(C1=O)C(CNC(=O)C(C)N)N1C(O)C3Cc4cc(C)c(OC)c(O)c4C(N3)C1C2 (stereo not shown) : 1

Every entry's value here was drawn from patent US7723068B2.
